System: DU-145 prostate
Procedure text: NCI tumour cell line growth inhibition, 48 h; in the data active = GI50 below about 0.43 µM; inactive = the rest
Thanks in advance; please answer with one of these: 1 (active), -1 (inactive)

Below are worked cases with known answers.
Cc1cc(Nc2cc(CN3CCOCC3)c3nc(C)c(Cc4ccc(Cl)cc4F)n3n2)n[nH]1: -1
C=CC[N+]1(CCO)CCN=C1CCCCCCCCCCCCC (stereo not given): -1

Look up the recorded call for CN(C)CCN1C(=O)c2cccc3c(N)ccc(c23)C1=O in this test.
-1

Param item: CN1C(=O)N(C)C2C1NN=c1s/c(=C\c3c[nH]c4ccccc34)c(=O)n12 (stereo not given)
1

Param item: OC(COc1cccc2ccccc12)CN1CCN(c2ccc(Cl)cc2)CC1 (stereo not given)
-1

---

Test system: NCI/ADR-RES ovarian
Procedure text: NCI tumour cell line growth inhibition, 48 h
Some compounds, each annotated with its measured GI50.

COc1ccc2c(c1)C(=O)c1c-2c(OCCN(C)C)nc2cc(OC)ccc12: 0.695 µM
O=C1OCC2=C1C(c1cccc(C(F)(F)F)c1)c1cc3c(cc1N2CCO)OCO3 (centres undefined): 1.34 µM

Fill blank: measured GI50 of the compound CC(N)(Cc1c[nH]c2ccccc12)C(=O)O (centres undefined) is ____.
> 2500 µM

Param item: CSC1=Nc2c(c(C)c(-c3ccccc3)n2CCCCl)C2=NC(=O)CN12
4.29 µM

Param item: COc1ccc(S(=O)(=O)NC2=NCCN2C(=S)SN2CCn3c2nsc3=S)cc1OC
61.8 µM

Param item: Clc1nc(Cl)c2ncn(C/C=C/Cn3cnc4c(Cl)nc(Cl)nc43)c2n1
20.1 µM

Param item: COc1cc(-c2nc(-c3nnc(-c4ccc(F)c(Cl)c4)o3)c3ccccn23)cc(OC)c1OC
1.88 µM

Param item: O=C(C[C@@]1(O)C(=O)Nc2c(Cl)ccc(Cl)c21)c1ccc(C2CC2)cc1
0.212 µM

Param item: COc1cccc2c1C(=O)c1c(O)c3c(c(O)c1C2=O)C[C@@](O)(C(=O)CO)C[C@@H]3OC1CC(OC(C)=O)C(OC(C)=O)C(C)O1 (some centres undefined)
0.552 µM

---

Some molecules, each annotated with its measured TGI.
System: NCI-H460 lung
Procedure text: NCI tumour cell line growth inhibition, 48 h

CCCCNC(=O)OCC(COc1ccccc1OC)OC(=O)NCCCC (stereo unspecified): > 100 µM
O=c1oc2ccccc2cc1-c1csc(Nc2cc(Cl)cc(Cl)c2)n1: > 100 µM
CC(NC1=NCCO1)c1cccs1 (stereo unspecified): > 100 µM

Fill blank: measured TGI of the molecule Cc1cc(C)c(S(=O)(=O)N(CCCCCCN)OCCCN)c(C)c1 is ____.
31.6 µM

Param item: CCN(CC)CCOc1ccc(N2Cc3ccccc3C2=O)cc1
> 10 µM

---

System: NCI-H460 lung
Measure: GI50

CN(C)CCNC(=O)c1cccc2cc([N+](=O)[O-])ccc12: 0.39 µM

# query: GI50 | item O=S(=O)(CC#CCCCOCC#Cc1ccccc1C#CCS(=O)(=O)c1ccccc1)c1ccccc1 | system: NCI-H460 lung
31.2 µM

Param item: CN1C(=O)N(C)C2C1NN=c1s/c(=C\c3c[nH]c4ccccc34)c(=O)n12 (centres undefined)
0.0397 µM

Param item: COc1ccc(-c2nn(-c3ccc(NC(=O)Nc4ccc(Cl)c(Cl)c4)cc3)cc2-c2ccncc2)cc1Cl
2.14 µM

Param item: Cc1ccc(Nc2[nH]c(C(=O)c3ccc(Cl)cc3)c(N)c2C(=S)Nc2ccccc2)nc1
23.9 µM

Param item: CCCCCCCCCCCCOC1C(CNCC2OC3OC(C)(C)OC3C2NC(=O)Nc2ccc(C(F)(F)F)cc2)OC2OC(C)(C)OC21 (centres undefined)
4.23 µM

Param item: OC(COc1cccc2ccccc12)CN1CCN(c2ccc(Cl)cc2)CC1 (centres undefined)
15.7 µM

Param item: C[C@H](C(=O)N[C@@H](Cc1ccc(-c2ccccc2)cc1)C(=O)NC1CC(C)(C)N(C)C(C)(C)C1)c1ccc(-c2ccccc2)c(F)c1
1.06 µM

Param item: O=c1c2[nH]c3ccccc3c2nc2n1CCS2
> 100 µM

---

System: MOLT-4 leukemia
Procedure text: NCI tumour cell line growth inhibition, 48 h; in the data active means GI50 below about 0.43 µM; inactive means the rest
Thanks in advance; please answer with one of these: active, inactive

Look up the recorded call for CSC1=Nc2c(c(C)c(-c3ccccc3)n2CCCCl)C2=NC(=O)CN12 in this test.
inactive

Param item: O=S(=O)(O)c1cc(N=Nc2cc(S(=O)(=O)O)c3ccccc3c2O)ccc1/C=C/c1ccc(N=Nc2cc(S(=O)(=O)O)c3ccccc3c2O)cc1S(=O)(=O)O
inactive

Param item: Cc1ccc(Nc2[nH]c(C(=O)c3ccc(Cl)cc3)c(N)c2C(=S)Nc2ccccc2)nc1
inactive

Param item: COc1cc2cn3c4ccc(O)cc4nc(N)c3c2cc1OC
inactive

---

Some compounds, each annotated with its measured TGI.
Tested on: M14 melanoma
Procedure text: NCI tumour cell line growth inhibition, 48 h

NC(N)=NCc1ccc2c(c1)OCO2: > 100 µM
Nc1ccc(-c2ccc(Nc3cc(S(=O)(=O)O)c(N)c4c3C(=O)c3ccccc3C4=O)cc2)c(S(=O)(=O)O)c1: > 100 µM
Brc1cccc(Nc2ncnc3sc4c(c23)CCC(Nc2cccc(Br)c2)C4)c1 (stereo not drawn): > 100 µM
CC(C)(C)C1(c2ccc(C3(c4ccccc4)Oc4ccccc4S3)[nH]2)Oc2ccccc2S1 (stereo not drawn): > 100 µM

# query: TGI | item C[C@@H]1[C@H]2[C@H](C=C3[C@@H]4CC[C@H]5Cc6nc7c(nc6C[C@]5(C)[C@H]4C[C@@H](O)[C@@]32C)C[C@@H]2CC[C@H]3C4=C[C@@H]5O[C@@]6(CC[C@](C)(CO)O6)[C@@H](C)[C@@]5(O)[C@@]4(C)[C@H](O)C[C@@H]3[C@@]2(C)C7)O[C@]12CCC(C)(C)O2 | system: M14 melanoma
10.5 µM

Param item: COC(=O)c1ccc(/C=C2\Cc3ccccc3C2=O)cc1
> 100 µM

Param item: O=C(O)CC(C(=O)O)C1c2ccccc2-c2ccccc21 (stereo not drawn)
> 100 µM

Param item: O=C1c2ccccc2C(=O)c2c(NC(=O)C(Cl)CCl)cccc21 (stereo not drawn)
20.9 µM

---

Some compounds, each annotated with its measured TGI.
Tested on: SR leukemia
Procedure text: NCI tumour cell line growth inhibition, 48 h

Use these answered entries as a reference point.
O=C(/C=c1\oc(=O)/c(=C/C(=O)c2ccc(Cl)cc2)oc1=O)c1ccc(Cl)cc1: > 100 µM
CC(C)(Cl)C(Br)CCC(CBr)=C(Cl)CCl (mixture of isomers): 2.55 µM
O=[N+]([O-])c1cccc(/C=C/c2ccccn2)c1: > 100 µM
Cc1cc(O)c(C2=NN(c3ccc(S(N)(=O)=O)cc3)C(c3ccccc3O)C2)cc1Cl (stereo not given): 26.7 µM
CC(=O)/C(N=Nc1ccc(-n2c(C)nc3ccc(Br)cc3c2=O)cc1)=C(/C)O: > 100 µM

Fill blank: measured TGI of the compound O=S(=O)(O)c1cc(N=Nc2cc(S(=O)(=O)O)c3ccccc3c2O)ccc1/C=C/c1ccc(N=Nc2cc(S(=O)(=O)O)c3ccccc3c2O)cc1S(=O)(=O)O is ____.
70.6 µM

Param item: COc1ccc2c(O)c(/C=C3\N=Nc4ncccc43)oc2c1C[C@H]1CCNC[C@H]1F
3.18 µM

Param item: O=C(CCc1ccco1)NC1CCN(CC2(c3ccc(Cl)cc3)CCC2)CC1
28.7 µM

Param item: COc1ccccc1-c1ccc2nc(NC(=O)Nc3cc(C(F)(F)F)cc(C(F)(F)F)c3)sc2c1
5.25 µM

Param item: O=c1c2cc(Br)ccc2nc(-c2ccccc2)n1NCC1(O)OCC(O)C(O)C1O (stereo not given)
> 100 µM

Param item: COc1cc[c]([Sb]([Br])([CH]=C(C)C)([CH]=C(C)C)[CH]=C(C)C)cc1
> 100 µM

Param item: Cc1nc2c(=O)n(C)c(=O)nc-2n(CCO)c1C
> 100 µM

Param item: C=C(C)C(=O)OC1C(C(C)CCCO)=C(CO)CC2OC(=O)C(=C)C21 (stereo not given)
> 100 µM

Param item: CCN1CCC2(CC1)NC(=O)c1c(c3ccc(Cl)c(Cl)c3n1C)C2C#N (stereo not given)
5.69 µM

Param item: c1ccc(CCCNc2nnnc3ccccc23)cc1
> 100 µM

---

System: TK-10 renal
Procedure text: NCI tumour cell line growth inhibition, 48 h
Some compounds, each annotated with its measured log10 of TGI.
Hey, these are logged values: log10 of TGI, µM being the unit before logging.

Use these answered entries as a reference point.
O=c1oc2ccccc2cc1-c1csc(Nc2cc(Cl)cc(Cl)c2)n1: 1.93
COC1/C=C\OC2(C)Oc3c(C)c(O)c4c(O)c(c(/C=N\OCCCc5ccccc5)c(O)c4c3C2=O)NC(=O)/C(C)=C\C=C/C(C)C(O)C(C)C(O)C(C)C(OC(C)=O)C1C (stereo unspecified): 0.93
CCOC(=O)/C(=C/c1ccccc1)C(=O)c1ccccc1: 1.05
COc1cccc2c1C(=O)c1c(O)c3c(c(O)c1C2=O)C[C@@](O)(C(=O)CO)C[C@@H]3OC1CC(OC(C)=O)C(OC(C)=O)C(C)O1 (stereo partly specified): 0.81
NC(=O)c1ccc2nc(-c3ccc(C4(N)CCC4)cc3)c(-c3ccccc3)n2n1: 1.44

Fill blank: measured log10 of TGI of the compound CCCCCCCCCCCCC/C=C1\C[C@H](O)COC1=O is ____.
1.50

Param item: C=C(C)[C@@H]1CC[C@]2(C(=O)Nc3ccccn3)CC[C@]3(C)[C@H](CC[C@@H]4[C@@]5(C)CCCNC(C)(C)[C@@H]5CC[C@]43C)[C@@H]12
0.74

Param item: CC(=O)OCC1OC(O[C@@H]2C[C@H]3C(C)(C)[C@H](OC(C)=O)CC[C@]3(C)[C@H]3CC[C@]4(C)C(=CC[C@H]4[C@@H](C)C[C@@H](O)[C@H](O)C(C)(C)O)[C@@]32C)C(O)C(O)C1O (stereo partly specified)
1.51

Param item: COc1cc(-c2nc3ccccc3[nH]2)ccc1OCC(=O)N=Nc1c(O)[nH]c2ccc(Cl)cc12
0.76

Param item: CSc1c(S(C)=O)[nH]c2cc(Br)cc(Br)c12 (stereo unspecified)
1.89

Param item: COc1cccc2c1nc1cccc(OC)c1[n+]2[O-]
1.68
